experiment-summary: Therapeutic index, ratio of CC50 for human HuH7 cells to EC50 for HCV 1b
Assay type: cell-based, Huh-7
assay-setup: read-out: Ratio CC50/EC50
Exercise: state measured selectivity ratio for each of the compounds provided.

-- ask # return recorded selectivity ratio for input `COc1cccc2c(=O)c3cc(Cl)cc(C(=O)Nc4cccnc4)c3[nH]c12`
-- reply 20.1

-- ask Tell me its selectivity ratio given `COc1cccc2c(=O)c3cc(Cl)cc(C(=O)Nc4ccccn4)c3[nH]c12` as the entry.
-- reply 3.2

-- ask State its selectivity ratio for this compound: `COc1cccc2c(=O)c3cccc(C(=O)Nc4ccccn4)c3[nH]c12`
-- reply 1.1
